Source listed as patent US20230322846A9.

target: [35S]-TBPS binding, rat brain cortical membranes; assay: Steroid inhibition of [35S]-TBPS binding; conditions: 3 nM [35S]-TBPS, in the presence of 5 mM GABA
pIC50: −log10 of the molar value.
Kindly state pIC50 for each of the entries shown.

Sample records with pIC50:
INSERT INTO results (molecule, reported) VALUES
  ('CCOC[C@@]1(O)CC[C@H]2[C@H](CC[C@@H]3[C@@H]2CC[C@]2(C)[C@@H]([C@H](CC)Nc4ccc(C#N)nc4)CC[C@@H]32)C1', '5.00 to 6.00'),
  ('COC[C@@]1(O)CC[C@H]2[C@H](CC[C@@H]3[C@@H]2CC[C@]2(C)[C@@H]([C@@H](C)NC(=O)c4ccc(F)cn4)CC[C@@H]32)C1', '6.00 to 7.00'),
  ('CCOC(=O)c1cnc(C[C@@H](C)[C@H]2CC[C@H]3[C@@H]4CC[C@@H]5C[C@](C)(O)CC[C@@H]5[C@H]4CC[C@]23C)o1 (stereo in doubt)', '6.00 to 7.00'),
  ('COC[C@@]1(O)CC[C@H]2[C@H](CC[C@@H]3[C@@H]2CC[C@]2(C)[C@@H]([C@H](C)NC(=O)c4ccc(C#N)cn4)CC[C@@H]32)C1', '5.00 to 6.00');

Respectfully, I request pIC50 for each entry included below.
1. CC(C)[C@@]1(O)CC[C@H]2[C@H](CC[C@@H]3[C@@H]2CC[C@]2(C)[C@@H]([C@@H](C)Cn4cc(C#N)cn4)CC[C@@H]32)C1
2. COC[C@@]1(O)CC[C@H]2[C@H](CC[C@@H]3[C@@H]2CC[C@]2(C)[C@@H]([C@@H](C)N4Cc5cc(C#N)ccc5C4=O)CC[C@@H]32)C1

1. 6.00 to 7.00
2. > 7.00

Respectfully, I request pIC50 for each entry included below.
1. C[C@@]1(O)CC[C@H]2[C@H](CC[C@@H]3[C@@H]2CC[C@]2(C)[C@@H](CN4CCCCC4=O)CC[C@@H]32)C1
2. CCOC[C@@]1(O)CC[C@H]2[C@H](CC[C@@H]3[C@@H]2CC[C@]2(C)[C@@H]([C@@H](C)Cn4cc(C#N)cn4)CC[C@@H]32)C1
3. CCOC[C@@]1(O)CC[C@@]2(C)[C@H](CC[C@@H]3[C@@H]2CC[C@]2(C)[C@@H]([C@H](CC)Nc4ccc(C#N)nc4)CC[C@@H]32)C1
4. C[C@H](Cn1cc(C#N)cn1)[C@H]1CC[C@H]2[C@@H]3CC[C@@H]4C[C@](C)(O)CC[C@@H]4[C@H]3CC[C@]12C

1. 5.00 to 6.00
2. > 7.00
3. 6.00 to 7.00
4. > 7.00

* * *

target: [35S]-TBPS binding, rat brain cortical membranes; assay: Steroid inhibition of [35S]-TBPS binding; conditions: 3 nM [35S]-TBPS, in the presence of 5 mM GABA
pIC50: −log10 of the molar value.
Kindly state pIC50 for each of the entries shown.

INSERT INTO assay_data (record_smiles, endpoint_label, reported) VALUES
  ('CCOC[C@@]1(O)CC[C@H]2[C@H](CC[C@@H]3[C@@H]2CC[C@]2(C)[C@@H]([C@@H](C)Nc4cccc(N5CCCC5=O)c4C)CC[C@@H]32)C1', 'pIC50', '> 7.00'),
  ('Cc1cc(C#N)ccc1N[C@H]([C@H]1CC[C@H]2[C@@H]3CC[C@@H]4C[C@](C)(O)CC[C@@H]4[C@H]3CC[C@]12C)C(F)(F)F', 'pIC50', '6.00 to 7.00'),
  ('CC[C@@]1(O)CC[C@H]2[C@H](CC[C@@H]3[C@@H]2CC[C@]2(C)[C@@H]([C@H](C)Cn4nccc4C#N)CC[C@@H]32)C1', 'pIC50', '6.00 to 7.00'),
  ('Cc1cc(C#N)ccc1N[C@@H]([C@H]1CC[C@H]2[C@@H]3CC[C@@H]4C[C@](C)(O)CC[C@@H]4[C@H]3CC[C@]12C)C(F)(F)F', 'pIC50', '5.00 to 6.00'),
  ('C[C@@H](Nc1cccnc1)[C@H]1CC[C@H]2[C@@H]3CC[C@@H]4C[C@](C)(O)CC[C@@H]4[C@H]3CC[C@]12C', 'pIC50', '> 7.00'),
  ('C[C@H]([C@H]1CC[C@H]2[C@@H]3CC[C@@H]4C[C@](C)(O)CC[C@@H]4[C@H]3CC[C@]12C)N1CCc2cc(C#N)ccc2C1=O', 'pIC50', '> 7.00'),
  ('C[C@H](NC(=O)c1ccccn1)[C@H]1CC[C@H]2[C@@H]3CC[C@@H]4C[C@](C)(O)CC[C@@H]4[C@H]3CC[C@]12C', 'pIC50', '5.00 to 6.00'),
  ('C[C@H](NC(=O)c1ccccc1F)[C@H]1CC[C@H]2[C@@H]3CC[C@@H]4C[C@](C)(O)CC[C@@H]4[C@H]3CC[C@]12C', 'pIC50', '5.00 to 6.00');

Respectfully, I request pIC50 for each entry included below.
1. C[C@@H](Cc1ccc(C(F)(F)F)nc1)[C@H]1CC[C@H]2[C@@H]3CC[C@@H]4C[C@](C)(O)CC[C@@H]4[C@H]3CC[C@]12C
2. CCC[C@@]1(O)CC[C@H]2[C@H](CC[C@@H]3[C@@H]2CC[C@]2(C)[C@@H]([C@H](C)Cc4cnc(C)cn4)CC[C@@H]32)C1

["> 7.00", "5.00 to 6.00"]

* * *

biological target: [35S]-TBPS binding, rat brain cortical membranes; experiment: Steroid inhibition of [35S]-TBPS binding; conditions: 3 nM [35S]-TBPS, in the presence of 5 mM GABA
endpoint.label: IC50

Sample records with IC50:
INSERT INTO assay_data (record_smiles, reported) VALUES
  ('C[C@H](Cn1cc(C#N)cn1)[C@@]1(O)CC[C@H]2[C@@H]3CC[C@@H]4C[C@](C)(O)CC[C@@H]4[C@H]3CC[C@@]21C', '1000 to 10000 nM'),
  ('COC[C@@]1(O)CC[C@@]2(C)[C@H](CC[C@@H]3[C@@H]2[C@@H](O)C[C@]2(C)[C@@H]([C@@H](C)Cn4cc(C#N)cn4)CC[C@@H]32)C1', '100 to 1000 nM'),
  ('C[C@H](Cc1nccc(C#N)n1)[C@H]1CC[C@H]2[C@@H]3CC[C@@H]4C[C@](C)(O)CC[C@@H]4[C@H]3CC[C@]12C', '100 to 1000 nM'),
  ('CCOC[C@@]1(O)CC[C@@]2(C)[C@H](CC[C@@H]3[C@@H]2CC[C@]2(C)[C@@H]([C@@H](C)Cn4nccc4C#N)CC[C@@H]32)C1', '< 100 nM');

Next compound, IC50 to be filled in.
# IC50 lookup, item "Cc1cc(C#N)ccc1N[C@@H](C)[C@H]1CC[C@H]2[C@@H]3CC[C@@H]4C[C@](C)(O)CC[C@@H]4[C@H]3CC[C@]12C"
100 to 1000 nM

* * *

Kindly state pEC50 for each of the entries shown.
biological target: human GABAA receptors composed of the α4β3δ subunits (Homo sapiens (Human), UniProt O14764+P28472+P48169); test: α4β3δ SyncroPatch automated patch clamp assay; settings: HEK cells, potentiation of submaximal GABA current, clamped at −120 mV
Sequence (P48169 36-554 limits assumed): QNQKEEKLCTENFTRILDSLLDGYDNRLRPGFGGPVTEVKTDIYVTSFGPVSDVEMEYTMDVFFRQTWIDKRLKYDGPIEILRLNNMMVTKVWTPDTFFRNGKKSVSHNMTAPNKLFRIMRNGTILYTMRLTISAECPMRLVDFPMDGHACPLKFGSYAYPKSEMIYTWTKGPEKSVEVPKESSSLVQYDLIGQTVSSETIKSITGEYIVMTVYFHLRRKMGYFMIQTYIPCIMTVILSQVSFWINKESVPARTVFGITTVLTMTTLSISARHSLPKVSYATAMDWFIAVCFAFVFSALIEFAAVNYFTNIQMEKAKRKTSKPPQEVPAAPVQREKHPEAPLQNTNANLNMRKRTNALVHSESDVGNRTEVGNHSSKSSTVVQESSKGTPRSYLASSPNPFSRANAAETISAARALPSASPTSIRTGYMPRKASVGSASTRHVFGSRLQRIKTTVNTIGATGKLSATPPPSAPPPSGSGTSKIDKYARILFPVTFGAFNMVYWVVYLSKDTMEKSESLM
Sequence (P28472 26-473 limits assumed): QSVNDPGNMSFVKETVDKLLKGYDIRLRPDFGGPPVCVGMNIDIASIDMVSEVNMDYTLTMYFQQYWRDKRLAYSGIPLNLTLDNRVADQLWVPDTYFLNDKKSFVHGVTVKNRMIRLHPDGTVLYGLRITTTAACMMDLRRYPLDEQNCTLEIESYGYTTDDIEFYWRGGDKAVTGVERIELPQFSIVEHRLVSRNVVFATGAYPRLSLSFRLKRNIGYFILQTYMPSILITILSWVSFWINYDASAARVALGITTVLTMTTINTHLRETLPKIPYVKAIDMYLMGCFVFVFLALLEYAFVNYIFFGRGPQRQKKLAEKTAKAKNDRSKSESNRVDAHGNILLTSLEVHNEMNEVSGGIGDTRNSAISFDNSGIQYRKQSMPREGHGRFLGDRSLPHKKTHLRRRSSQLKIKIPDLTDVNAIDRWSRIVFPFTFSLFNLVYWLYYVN
Sequence (O14764 17-452 limits assumed): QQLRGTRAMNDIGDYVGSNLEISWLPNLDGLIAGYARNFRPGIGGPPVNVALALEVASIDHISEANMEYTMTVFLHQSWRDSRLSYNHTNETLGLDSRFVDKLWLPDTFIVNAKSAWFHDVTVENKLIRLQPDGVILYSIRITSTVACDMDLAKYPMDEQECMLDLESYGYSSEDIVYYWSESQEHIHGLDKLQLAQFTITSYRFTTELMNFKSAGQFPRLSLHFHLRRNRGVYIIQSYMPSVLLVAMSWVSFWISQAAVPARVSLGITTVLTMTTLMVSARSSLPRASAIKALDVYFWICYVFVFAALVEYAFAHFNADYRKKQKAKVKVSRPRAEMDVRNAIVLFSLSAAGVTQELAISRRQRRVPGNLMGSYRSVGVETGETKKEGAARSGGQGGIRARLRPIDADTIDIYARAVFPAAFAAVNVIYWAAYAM
pEC50: −log10 of the molar value.

INSERT INTO results (record_smiles, reported) VALUES
  ('C[C@H](Cc1nccc(C#N)n1)[C@H]1CC[C@H]2[C@@H]3CC[C@@H]4C[C@](C)(O)CC[C@@H]4[C@H]3CC[C@]12C', '≤ 6.00'),
  ('CCOC[C@@]1(O)CC[C@H]2[C@H](CC[C@@H]3[C@@H]2CC[C@]2(C)[C@@H]([C@H](CC)Cn4ccc(C#N)n4)CC[C@@H]32)C1', '> 6.70'),
  ('C[C@@H](Cc1cncc(C#N)c1)[C@H]1CC[C@H]2[C@@H]3CC[C@@H]4C[C@](C)(O)CC[C@@H]4[C@H]3CC[C@]12C', '≤ 6.00'),
  ('CCC[C@@]1(O)CC[C@H]2[C@H](CC[C@@H]3[C@@H]2CC[C@]2(C)[C@@H]([C@@H](C)Cn4nnc(C)n4)CC[C@@H]32)C1', '6.00 to 6.70');

Next molecule, pEC50 to be filled in.
# pEC50 lookup, item "CCC[C@@]1(O)CC[C@H]2[C@@H](CC[C@@H]3[C@@H]2CC[C@]2(C)[C@@H]([C@@H](C)Cn4nnnc4C)CC[C@@H]32)C1"
6.00 to 6.70

* * *

biological target: [35S]-TBPS binding, rat brain cortical membranes; test: Steroid inhibition of [35S]-TBPS binding; details: 3 nM [35S]-TBPS, in the presence of 5 mM GABA
pIC50: −log10 of the molar value.
endpoint.label: pIC50

Sample records with pIC50:
INSERT INTO measurements (molecule, endpoint_label, reported) VALUES
  ('Cc1cncc(C[C@H](C)[C@H]2CC[C@H]3[C@@H]4CC[C@@H]5C[C@](C)(O)CC[C@@H]5[C@H]4CC[C@]23C)n1 [Example 441]', 'pIC50', '> 7.00'),
  ('C[C@@]1(O)CC[C@H]2[C@H](CC[C@@H]3[C@@H]2CC[C@]2(C)[C@@H](CN4CC[C@H](c5ccccc5)C4=O)CC[C@@H]32)C1 [Example 12]', 'pIC50', '> 7.00');

Next molecule, pIC50 to be filled in.
# pIC50 lookup, item C[C@@H](Cn1cc(C#N)cn1)[C@H]1CC[C@H]2[C@@H]3CC[C@@H]4C[C@@](O)(C5CC5)CC[C@@H]4[C@H]3CC[C@]12C [Example 341]
> 7.00
